System: Staphylococcus aureus
Procedure details: Antibacterial activity against Staphylococcus aureus assessed as reduction in bacterial cell viability incubated for 20 to 24 hrs by REMA method
Type: functional
Measurement name: MIC (µg/mL)
Reply numerically in µg/mL, unit not repeated.

| Record smiles | Units label | MIC |
| --- | --- | --- |
| O=C(Nc1cccc(-n2c(/C=C/c3ccc(F)cc3)nc3ccccc3c2=O)c1)c1ccccc1 | µg/mL | 125 |
| Cc1ccccc1C(=O)Nc1cccc(-n2c(/C=C/c3ccc(F)cc3)nc3ccccc3c2=O)c1 | µg/mL | 125 |
| COc1ccc(CC(=O)Nc2cccc(-n3c(/C=C/c4ccc(F)cc4)nc4ccccc4c3=O)c2)cc1 | µg/mL | 62.5 |
| Cc1ccccc1C(=O)Nc1cccc(-n2c(/C=C/c3ccc(C#N)cc3)nc3ccccc3c2=O)c1 | µg/mL | 62.5 |

Shift focus to the following entry.
Given "N#Cc1ccc(/C=C/c2nc3ccccc3c(=O)n2-c2cccc(NC(=O)c3ccccc3)c2)cc1" , state its recorded MIC.
62.5
